Endpoint summary: IC50, system: Platelet-derived growth factor receptor beta (Mus musculus), multiple sources combined.
Sequence (P05622 whole entry): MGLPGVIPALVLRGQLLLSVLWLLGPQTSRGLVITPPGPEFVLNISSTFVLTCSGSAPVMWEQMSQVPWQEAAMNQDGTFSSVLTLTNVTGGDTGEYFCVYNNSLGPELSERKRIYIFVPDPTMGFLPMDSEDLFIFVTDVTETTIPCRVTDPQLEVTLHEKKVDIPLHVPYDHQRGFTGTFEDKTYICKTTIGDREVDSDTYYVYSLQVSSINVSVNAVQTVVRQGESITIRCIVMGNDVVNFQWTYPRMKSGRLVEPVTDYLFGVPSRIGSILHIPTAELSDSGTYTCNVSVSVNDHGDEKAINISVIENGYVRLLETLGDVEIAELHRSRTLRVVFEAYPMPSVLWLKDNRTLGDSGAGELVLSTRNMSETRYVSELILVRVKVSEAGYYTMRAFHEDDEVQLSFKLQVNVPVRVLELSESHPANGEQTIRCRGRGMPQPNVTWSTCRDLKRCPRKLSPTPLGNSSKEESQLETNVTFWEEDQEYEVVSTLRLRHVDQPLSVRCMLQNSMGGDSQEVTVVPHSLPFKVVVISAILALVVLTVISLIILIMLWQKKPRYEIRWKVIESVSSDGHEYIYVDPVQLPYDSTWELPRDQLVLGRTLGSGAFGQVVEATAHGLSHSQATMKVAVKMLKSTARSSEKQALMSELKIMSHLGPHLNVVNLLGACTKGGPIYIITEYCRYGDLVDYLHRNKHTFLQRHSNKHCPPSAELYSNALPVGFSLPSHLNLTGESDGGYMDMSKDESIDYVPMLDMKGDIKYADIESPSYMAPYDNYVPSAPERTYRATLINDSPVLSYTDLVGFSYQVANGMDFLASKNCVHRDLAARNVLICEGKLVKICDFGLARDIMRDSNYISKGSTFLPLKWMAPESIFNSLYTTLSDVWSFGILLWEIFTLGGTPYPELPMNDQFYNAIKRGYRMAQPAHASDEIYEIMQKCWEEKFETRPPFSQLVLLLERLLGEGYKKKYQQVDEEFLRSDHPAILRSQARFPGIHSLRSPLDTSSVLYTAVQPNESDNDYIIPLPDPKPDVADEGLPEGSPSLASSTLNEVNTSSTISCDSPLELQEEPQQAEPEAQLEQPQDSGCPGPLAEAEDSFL
Write the number in µM without appending the unit.

Examples with answers:
[
  {
    "entry-smiles": "CCCOc1ccc2c(c1)ncn2-c1ccccc1",
    "measurement-unit": "µM",
    "IC50": 0.25
  },
  {
    "entry-smiles": "COc1cc(OC)cc(-c2cc3cnc(NCCCN4CCN(C)CC4)cc3nc2N)c1",
    "measurement-unit": "µM",
    "IC50": 50
  },
  {
    "entry-smiles": "COc1cc(OC)cc(-c2cc3cnc(NCCCN4CCOCC4)cc3nc2NC(=O)NC(C)(C)C)c1",
    "measurement-unit": "µM",
    "IC50": 45
  }
]

Query string: Quick check: IC50 of C=CCOc1ccc2c(c1)ncn2-c1ccccc1 ?
Result string: 0.61

* * *

Endpoint summary: log10(IC50), system: UniProtKB P05622, multiple sources combined.
Form field - Quantity: IC50; Unit: µM; Scale: log10

Examples with answers:
[
  {
    "entry-smiles": "COC(=O)c1ccc2[nH]nc(-c3nc4ccc(N5CCC(N6CCCCC6)CC5)cc4[nH]3)c2c1",
    "attribute-measured": "log10(IC50)",
    "reading": -1.20
  },
  {
    "entry-smiles": "CCNC(=O)Nc1nc2cc(N)ncc2cc1-c1c(Cl)cccc1Cl",
    "attribute-measured": "log10(IC50)",
    "reading": 1.04
  },
  {
    "entry-smiles": "COc1cc(OC)cc(-c2cc3cnc(NCCCCN4CCN(C)CC4)cc3nc2NC(=O)NC(C)(C)C)c1",
    "attribute-measured": "log10(IC50)",
    "reading": 0.56
  },
  {
    "entry-smiles": "CCN(CC)CCCCCNc1cc2c(cn1)cc(-c1c(Cl)cccc1Cl)c(=O)n2C",
    "attribute-measured": "log10(IC50)",
    "reading": -0.13
  },
  {
    "entry-smiles": "CC(C)(C)NC(=O)Nc1ccc2[nH]nc(-c3nc4ccc(N5CCC(N6CCCCC6)CC5)cc4[nH]3)c2c1",
    "attribute-measured": "log10(IC50)",
    "reading": -1.09
  }
]

Query string: Provide value of log10(IC50) for this record tested with UniProtKB P05622: CCN(CC)CCCOc1ccc(Nc2cc3c(cn2)cc(-c2c(Cl)cccc2Cl)c(=O)n3C)cc1
Result string: -0.44

Query string: Provide value of log10(IC50) for this record tested with UniProtKB P05622: COc1cc(OC)cc(-c2cc3cnc(NCCCCN4CCOCC4)cc3nc2NC(=O)NC(C)(C)C)c1
Result string: 1.18

Query string: Provide value of log10(IC50) for this record tested with UniProtKB P05622: COc1cc(OC)cc(-c2cc3cnc(NCCCCCO)cc3nc2NC(=O)NC(C)(C)C)c1
Result string: 1.04

Query string: Provide value of log10(IC50) for this record tested with UniProtKB P05622: COc1cc(OC)cc(-c2cc3cnc(N)cc3nc2NC(=O)NC(C)(C)C)c1
Result string: 1.58

Query string: Provide value of log10(IC50) for this record tested with UniProtKB P05622: CCNC(=O)Nc1nc2cc(N)ncc2cc1-c1ccccc1
Result string: 0.89

Query string: Provide value of log10(IC50) for this record tested with UniProtKB P05622: CCN(CC)C(=O)c1ccc(Nc2ncc3cc(-c4c(Cl)cccc4Cl)c(=O)n(C)c3n2)cc1
Result string: -0.54

Query string: Provide value of log10(IC50) for this record tested with UniProtKB P05622: CCNC(=O)Nc1nc2cc(NCCCN3CCN(C)CC3)ncc2cc1-c1c(Cl)cccc1Cl
Result string: -0.27

Query string: Provide value of log10(IC50) for this record tested with UniProtKB P05622: COc1ccc2oc(C(=O)c3cc4cc(OC)ccc4o3)cc2c1
Result string: 0.00

Query string: Provide value of log10(IC50) for this record tested with UniProtKB P05622: Cn1c(=O)c(-c2c(Cl)cccc2Cl)cc2cnc(Nc3ccccc3)cc21
Result string: 0.15

Query string: Provide value of log10(IC50) for this record tested with UniProtKB P05622: CCN(CC)CCCCCNc1cc2nc(NC(=O)NC(C)(C)C)c(-c3cc(OC)cc(OC)c3)cc2cn1
Result string: 0.70

Query string: Provide value of log10(IC50) for this record tested with UniProtKB P05622: Nc1ccc2oc(C(=O)c3cc4cc(N)ccc4o3)cc2c1
Result string: 0.08

Query string: Provide value of log10(IC50) for this record tested with UniProtKB P05622: Nc1cc2nc(N)c(-c3ccccc3)cc2cn1
Result string: 1.23

Query string: Provide value of log10(IC50) for this record tested with UniProtKB P05622: CNc1cc2c(cn1)cc(-c1c(Cl)cccc1Cl)c(=O)n2C
Result string: 0.90

Query string: Provide value of log10(IC50) for this record tested with UniProtKB P05622: CCNC(=O)Nc1nc2cc(NCCCCN(CC)CC)ncc2cc1-c1c(Cl)cccc1Cl
Result string: -0.80
